The reported measurements were obtained from the supplement of paper PMC3545927.

- test.target: furin, P09958;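 further: purified furin at 1:10 enzyme:substrate in 50 mM HEPES pH 7.5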
- Sequence (P09958 whole entry): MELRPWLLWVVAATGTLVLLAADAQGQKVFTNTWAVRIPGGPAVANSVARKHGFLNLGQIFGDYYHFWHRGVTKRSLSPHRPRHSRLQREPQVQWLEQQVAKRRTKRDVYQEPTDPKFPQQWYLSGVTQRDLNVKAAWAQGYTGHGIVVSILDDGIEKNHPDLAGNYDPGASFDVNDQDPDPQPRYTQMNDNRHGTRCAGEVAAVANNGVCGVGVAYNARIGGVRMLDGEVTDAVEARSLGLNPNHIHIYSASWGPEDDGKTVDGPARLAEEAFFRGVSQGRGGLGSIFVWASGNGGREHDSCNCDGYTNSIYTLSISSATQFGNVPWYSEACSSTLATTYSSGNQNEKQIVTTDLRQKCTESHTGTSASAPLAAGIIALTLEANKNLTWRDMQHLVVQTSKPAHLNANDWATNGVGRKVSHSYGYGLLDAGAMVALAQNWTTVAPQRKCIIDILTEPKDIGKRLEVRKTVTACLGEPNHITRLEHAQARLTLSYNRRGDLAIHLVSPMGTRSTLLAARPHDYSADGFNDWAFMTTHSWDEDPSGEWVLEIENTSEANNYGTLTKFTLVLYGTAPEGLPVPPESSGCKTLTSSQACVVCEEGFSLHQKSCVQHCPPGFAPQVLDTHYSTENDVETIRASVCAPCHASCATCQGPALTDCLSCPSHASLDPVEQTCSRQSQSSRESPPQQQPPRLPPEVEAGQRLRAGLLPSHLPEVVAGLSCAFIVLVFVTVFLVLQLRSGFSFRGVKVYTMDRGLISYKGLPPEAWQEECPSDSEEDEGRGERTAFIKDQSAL
- procedure.text: furin cleavage Z-score vs untreated control; higher = more cleavage, active = 3.5 or more, inactive = 1 or less, 8 variable residues between constant flanks
- test.settings: 15 min
The list shows a part of the results. How many sequences the whole screen found active is unknown.
Listed below: furin cleavage Z-score values for each entry.

{"biopolymer.sequence": "CASEECSQHLAGNASASA [HC1677]", "furin cleavage Z-score": 1.14}
{"biopolymer.sequence": "CAGSWSTVSSAGNASASA [HC1362]", "furin cleavage Z-score": -0.166}
{"biopolymer.sequence": "CATTPSSGSWAGNASASA [HC55]", "furin cleavage Z-score": -0.739}
{"biopolymer.sequence": "CATTPCSRSWAGNASASA [HC1893]", "furin cleavage Z-score": 0.627}
{"biopolymer.sequence": "CARCRRSVSSAGNASASA [FS-2548]", "furin cleavage Z-score": 2.68}
{"biopolymer.sequence": "CAGFADLMGYAGNASASA [HC225]", "furin cleavage Z-score": -0.646}
{"biopolymer.sequence": "CAEVVTSTGVAGNASASA [HC2236]", "furin cleavage Z-score": -1.6}
{"biopolymer.sequence": "CASLARGRRSAGNASASA [FS-295]", "furin cleavage Z-score": 9.53}
{"biopolymer.sequence": "CASVAHDGAGAGNASASA [HC1556]", "furin cleavage Z-score": -3.13}
{"biopolymer.sequence": "CARCKRGMKKAGNASASA [FS-1818]", "furin cleavage Z-score": 0.604}
{"biopolymer.sequence": "CARSARKSNFAGNASASA [FS-3073]", "furin cleavage Z-score": 0.463}
{"biopolymer.sequence": "CAVGIFRAAVAGNASASA [HC749]", "furin cleavage Z-score": -0.141}
{"biopolymer.sequence": "CADHRRSVDSAGNASASA [FS-2628]", "furin cleavage Z-score": 0.662}
{"biopolymer.sequence": "CAAKHRTKRSAGNASASA [FS-746]", "furin cleavage Z-score": 14.7}
{"biopolymer.sequence": "CAVVGCSMSYAGNASASA [HC2036]", "furin cleavage Z-score": -0.0657}
{"biopolymer.sequence": "CAACNWTRGEAGNASASA [HC482]", "furin cleavage Z-score": 0.0745}
{"biopolymer.sequence": "CAKKQETKRSAGNASASA [FS-675]", "furin cleavage Z-score": 0.0553}
{"biopolymer.sequence": "CARSARDVSSAGNASASA [FS-2302]", "furin cleavage Z-score": 8.78}
{"biopolymer.sequence": "CARCRRGFGVAGNASASA [FS-1849]", "furin cleavage Z-score": 1.42}
{"biopolymer.sequence": "CAIVSTAAQTAGNASASA [HC691]", "furin cleavage Z-score": -1.15}
{"biopolymer.sequence": "CARSARDTAQAGNASASA [FS-3168]", "furin cleavage Z-score": 5.99}
{"biopolymer.sequence": "CAVVGVVCAAAGNASASA [HC1107]", "furin cleavage Z-score": -0.0757}
{"biopolymer.sequence": "CAPDVVCCSMAGNASASA [HC2119]", "furin cleavage Z-score": 1.32}
{"biopolymer.sequence": "CARSARPLVQAGNASASA [FS-2085]", "furin cleavage Z-score": 0.432}
{"biopolymer.sequence": "CAMCAVHPTLAGNASASA [HC599]", "furin cleavage Z-score": -0.0857}
{"biopolymer.sequence": "CARCVRDCDPAGNASASA [FS-3243]", "furin cleavage Z-score": 1.92}
{"biopolymer.sequence": "CASHQRTKRSAGNASASA [FS-1165]", "furin cleavage Z-score": 9.17}
{"biopolymer.sequence": "CAYLNRGRRSAGNASASA [FS-1504]", "furin cleavage Z-score": 11.8}
{"biopolymer.sequence": "CARCRRTVSMAGNASASA [FS-1998]", "furin cleavage Z-score": 2.14}
{"biopolymer.sequence": "CASGYRGRRSAGNASASA [FS-1279]", "furin cleavage Z-score": 9.6}
